All values here come from ChEMBL document CHEMBL1134130.

Here we list compounds with their recorded pKi when tested on UniProt:Q95323.
Sequence (Q95323 whole entry): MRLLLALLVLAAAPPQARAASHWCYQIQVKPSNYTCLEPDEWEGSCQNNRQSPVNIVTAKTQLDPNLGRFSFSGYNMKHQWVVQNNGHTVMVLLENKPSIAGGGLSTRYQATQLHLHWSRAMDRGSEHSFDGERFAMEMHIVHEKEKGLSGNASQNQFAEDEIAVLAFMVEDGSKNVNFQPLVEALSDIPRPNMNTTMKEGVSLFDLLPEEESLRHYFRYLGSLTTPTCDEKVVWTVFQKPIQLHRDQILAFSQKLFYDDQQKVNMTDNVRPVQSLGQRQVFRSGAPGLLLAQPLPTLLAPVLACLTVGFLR
Hey, just a heads up that pKi is the negative log base 10 of the concentration in molar.

NS(=O)(=O)c1ccc(C(=O)N[C@@H](Cc2c[nH]cn2)C(=O)N[C@@H](Cc2ccccc2)C(=O)O)cc1 7.64

Query block: Return reported pKi for target or system UniProt:Q95323, item NS(=O)(=O)c1cc(C(=O)N[C@@H](Cc2ccc(O)cc2)C(=O)O)ccc1Cl .
Result block: 6.49

Query block: Recall the reported pKi of NS(=O)(=O)c1ccc(C(=O)NCCCC(=O)O)cc1 when tested on UniProt:Q95323.
Result block: 6.92

Query block: Quote pKi with test system UniProt:Q95323 for NC(=O)C[C@H](NC(=O)c1ccc(S(N)(=O)=O)cc1)C(=O)O
Result block: 6.81

Query block: Param request: pKi | system UniProt:Q95323 | item C[C@H](NC(=O)c1ccc(S(N)(=O)=O)cc1)C(=O)O
Result block: 7.12
